# TEST_DESCRIPTION: Equilibrium solubility of WS-12 in compositions / evaluation of solubilizers (HPLC)
# Type: physicochemical
# TEST_CONTEXT: aqueous ophthalmic composition, 2 °C, aqueous with cosolvent or surfactant or cyclodextrin, thermodynamic from solid; in 3% KOLLIPHOR EL, 0.14% hypromellose, 0.78% Na dihydrogen phosphate dihydrate, 0.55% NaCl, pH 7; 2°-8° C.; read-out: WS-12 Solubility (mg/mL) 2°-8° C.
MEASURE: solubility (mg/mL)
Response body: numeric value in mg/mL, unit text excluded.

Prompt: Given the entry COc1ccc(NC(=O)[C@@H]2C[C@H](C)CC[C@H]2C(C)C)cc1 [WS-12] , report its measured solubility.
Completion: 0.041

###

# TEST_DESCRIPTION: Equilibrium solubility of WS-12 in compositions / evaluation of solubilizers (HPLC)
# Format: physicochemical
# TEST_CONTEXT: aqueous medium with solubilizer, aqueous with cosolvent or surfactant or cyclodextrin, thermodynamic from solid; KOLLIDON 30 (polyvinylpyrrolidone); read-out: WS-12 level solubilized
MEASURE: solubility

Prompt: Given the entry COc1ccc(NC(=O)[C@@H]2C[C@H](C)CC[C@H]2C(C)C)cc1 [WS-12] , report its measured solubility.
Completion: < 200 µM
